Reference for the values: patent US9650395B2

Tested on: Haemophilus influenzae (H. influenzae) 49247
assay overview: Antibacterial activity, MIC, H. influenzae 49247
Type: cell-based
settings: Haemophilus influenzae; H. influenzae 49247; read-out: MIC 49247
MIC values, listed per item

Check out these entries, answers already filled in.
* CCc1cc(C(=O)O)c(=O)[nH]c1-c1ccc(N2CCCC2=O)cc1 [Cpd 114] | < 1 mg/L
* CCc1c(-c2ccc(N3CC[C@@H](O)C3)cc2)[nH]c(=O)c(C(=O)O)c1O [Cpd 124] | < 1 mg/L
* CCc1c(-c2ccc(N3C[C@@H](O)[C@@H](O)C3)cc2)[nH]c(=O)c(C(=O)O)c1O [Cpd 304] | < 1 mg/L
* CCc1cc(C(=O)O)c(=O)[nH]c1-c1ccc(N2CCCCC2)cc1 [Cpd 108] | < 1 mg/L
* CCc1c(-c2ccc(N(C)CCO)cc2)[nH]c(=O)c(C(=O)O)c1O [Cpd 18] | < 1 mg/L

# context switch: different compound, same MIC
Quick check: MIC of CCc1cc(C(=O)O)c(=O)[nH]c1-c1ccc(N2CC(O)C2)cc1 [Cpd 121] ?
< 1 mg/L
